Measured EC50, listed per entry.
Tested On: KLH (Keyhole Limpet Hemocyanin) (keyhole limpet)
Assay Comment: ELISA on KLH
Reply numerically in nM, unit not repeated.

{"columns": ["Binder", "EC50, nM"],
 "data": [
  ["NGS602-OLIGO_185 (VHH) VHH: QVQLVESGGGLVQAGGSLRLSCAASGRTSSRYVMGWFRQSPGKEREFVAAISANGRSTNYAGSVNGRFKISRDGAKDKVDLQMNSLKPEDTAVYFCATNMAFSSSSNFPANYDVWGQGTQVTVSS", 0.077],
  ["NGS602-OLIGO_152 (VHH) VHH: QVQLVESGGGLVQAGDSLRLSCAASGDNFSRYTFGWFRQAPGKEREFVAVINWSGSYTYVADSVAGRFTMSRDNAKHLVYLQMDSLNTGDTAVYYCAAHWDYGSSSRRQREYDYWGQGTQVIVSS", 0.638],
  ["NGS602-OLIGO_28 (VHH) VHH: QVQLVESGGGLVRAGGSLRLSCAASGRAFSSYPMGWFRRAPGKEREFVAAISLSGSKQYYVDSVKGRFTISRDNAKNTVSLQMNSLKPEDTAVYYCAALKDGEPPAVDYWGQGTQVTVSS", 0.707]
]}

Q. Tell me the measured EC50 of NGS602-OLIGO_221 (VHH) VHH: QVQLVESGGGLVQAGESLRLSCVASGRTFSSYAMGWFRQAPGQEREFVARISRRGTNTYYADSVRGRFTISRDNAKNTVYLQMNSLKPEDTAVYYCAADRSDVFEKDPGYYDYWGQGAQVTVSS , please.
A. 220
